Test system: SEM cells
Assay: cell viability relative to DMSO control; higher = less cytotoxic
Conditions: RPMI 5 mM glucose + 10% dialyzed FBS; 48 h; 0.00234 µM
PROPERTY: cell viability (%)
Enter your answer as a number in %; do not include the unit.

What does the record list as cell viability for N#CC[C@H](C1CCCC1)n1cc(-c2ncnc3[nH]ccc23)cn1 ?
97.7

Which cell viability value belongs to N[C@@H](Cc1ccc(O)c(O)c1)C(=O)O ?
97.6

# cell viability lookup, item CC1=C(/C=C/C(C)=C/C=C/C(C)=C/C(=O)O)C(C)(C)CCC1
107

Need cell viability, item Cc1ccc(/C=N/NC(=O)c2ccccc2Oc2ccccc2)o1
102

# cell viability lookup, item COc1ccc([S+](=O)([O-])Nc2cccnc2Nc2ccc(O)cc2)cc1
109

What measured cell viability goes with C[N+]1(C)[C@@H]2CC(OC(=O)C(O)(c3cccs3)c3cccs3)C[C@H]1[C@@H]1O[C@@H]12 (some centres undefined) ?
98

I am curious: what cell viability value has been reported for C1CN\2C[C@@H](\N=C2S1)C3=CC=CC=C3 ?
95.3

What does the record list as cell viability for Cc1nc(N)ncc1-c1nc(N2CCOCC2)c2sc(C(C)(C)O)cc2n1 ?
130

Query: cell viability; subject: O=C(NCc1ccccc1)c1csc(Nc2ccncn2)n1
69.1

# cell viability lookup, item Oc1ccc(-c2ccc(-c3cc(Nc4cccc(CNC5CC5)c4)[nH]n3)cc2)c(O)c1
96.9

# query: cell viability of entry Cn1cnc([N+](=O)[O-])c1Sc1ncnc2nc[nH]c12
82.8

Tell me the measured cell viability of C[C@H](Cc1ccc(O)c(O)c1)[C@@H](C)Cc1ccc(O)c(O)c1 , please.
113

Which value of cell viability has been reported for NC[C@H]1O[C@H](O[C@H]2[C@H](O)[C@@H](O[C@H]3O[C@H](CO)[C@@H](O)[C@H](N)[C@H]3O)[C@H](N)C[C@@H]2N)[C@H](N)C[C@@H]1O in the records?
105

I would be grateful if you could share the reported cell viability for CCOC(=O)N[C@@H]1CC[C@@H]2[C@@H](C1)C[C@H]1C(=O)O[C@H](C)[C@H]1[C@H]2/C=C/c1ccc(-c2cccc(F)c2)cn1 .
87.3

---

System: P12-Ichikawa
Assay: cell viability relative to DMSO control; higher = less cytotoxic
Conditions: RPMI 5 mM glucose + 10% dialyzed FBS; 48 h; 0.000781 µM
Please respond with reported cell viability for every item in the list.
Your answer is read as %, so omit the unit and give the number.

Looking for the measured cell viability of COc1cc2ncn(-c3cc(OCc4ccccc4C(F)(F)F)c(C(N)=O)s3)c2cc1OC , can you help?
113

Please report the recorded cell viability for C[C@H](Cc1ccc(O)c(O)c1)[C@@H](C)Cc1ccc(O)c(O)c1 .
124

Fill in the blank: the reported cell viability of Oc1ccc([C@@H]2Oc3ccc(O)cc3[C@@H]3CCC[C@@H]32)cc1 is ____.
76.8

Requested read-out: cell viability. Entry: COc1cc2ncnc(Nc3cccc(Cl)c3)c2cc1OC
111

Could you share which cell viability value was measured for CC[C@H]1CN2CCc3cc(OC)c(OC)cc3[C@@H]2C[C@@H]1C[C@H]1NCCc2cc(OC)c(OC)cc21 ?
103

Fill in: cell viability of OC[C@H]1OC(OC2=CC3=C(C(=C2)O)C(=O)\C(=C/O3)C4=CC=C(O)C=C4)[C@H](O)[C@@H](O)[C@@H]1O (some centres undefined) is ___
82.5

// query cell viability value for entry CO[C@@H]1[C@@H](O)[C@H](O)[C@@H](n2c3c(Cl)cccc3c3c4c(c5c6cccc(Cl)c6[nH]c5c32)C(=O)NC4=O)O[C@H]1CO
97.7

Requested field: cell viability. Item: C=CC(=O)Nc1ccc2ncnc(Nc3ccc(OCc4cccc(F)c4)c(Cl)c3)c2c1
97.1

Which measured cell viability value corresponds to NCCc1ccc(O)c(O)c1 ?
128

Query (compound): CCCCc1nc2cc(/C=C/C(=O)NO)ccc2n1CCN(CC)CC ; field requested: cell viability
95.7

// lookup cell viability for CCOC(=O)[C@H]1O[C@@H]1C(=O)N[C@@H](CC(C)C)C(=O)NCCC(C)C
116

Look up cell viability for this compound: N#Cc1ccc(NC(=O)Nc2ccccc2Br)c2nn[nH]c12
103

What does the record list as cell viability for O=C1CCCC(=O)C1C(=O)c1ccc(C(F)(F)F)cc1[N+](=O)[O-] ?
113

Query (compound): CC(C)n1cnc2c(NCCc3ccc(O)cc3)nc(-c3csc4ccccc34)nc21 ; field requested: cell viability
98.3
